Readout Kind: melting point (°C)

Some solved entries appear below for comparison.
Compound | Readout Kind | Unit Abbreviation | Result Value
CC1Cc2ccccc2N1 (centres undefined) | melting point | °C | -51
CC12CCC3C(CCC4CC(=O)CCC43C)C1CC(=O)C2 (centres undefined) | melting point | °C | 163
NC(=O)Cc1cccs1 | melting point | °C | 147
COC(=O)c1ccc2[nH]ccc2c1 | melting point | °C | 125
C[Si](O)(c1ccccc1)c1ccccc1 | melting point | °C | 167

1 = CCOc1ccc(Cc2nccc3cc(OCC)c(OCC)cc23)cc1OCC
2 = CCCCNC(=O)NS(=O)(=O)c1ccc(N)cc1
Field: entry with larger melting point (options 1 / 2 ). Your choice should be expressed through its label.
2

* * *

Readout Kind: melting point (°C)

Compound | Readout Kind | Result Value
Oc1c(Cl)cc(Cl)c2ccccc12 | melting point | 108

P = O=C1OC2(c3ccc(O)cc3Oc3cc(O)ccc32)c2ccc(N=C=S)cc21
Q = CC(=O)Nc1ccccc1CCc1ccccc1NC(C)=O
R = CCOCOC(=O)c1ccccc1Nc1c(Cl)ccc(C)c1Cl
S = NS(=O)(=O)c1cc(C(F)(F)F)ccc1C(F)(F)F
Parameters: sort_field (melting point), sort_dir (desc). Provide the ranking by listing each label in its place in the requested order.
P, Q, S, R
(P: 360 °C, Q: 250 °C, S: 147 °C, R: 73.5 °C)

1 = O=C(O)c1ccc(F)cc1Cl
2 = Cc1ccc(C(=S)N2CCCCC2)cc1
3 = Cc1cc(C)c2c(N)n[nH]c2n1
List by increasing melting point. Provide the ranking by listing each label in its place in the requested order.
2, 1, 3

P = CC(=O)OC1CC2C(C)C(=O)C3(C(O)CC4C5(C)CCCC4(C(O)OC5)C13)C2O (configuration not stated)
Q = Brc1cnc(N2CCCCC2)nc1OCc1ccccc1
Field: entry with larger melting point (options P / Q ). Your choice should be expressed through its label.
P

* * *

Readout Kind: melting point (°C)

Some solved entries appear below for comparison.
Compound | melting point (°C)
C=C1C(=O)OC2CC3(C)CCCC(C)C3=CC12 (stereo not drawn) | 76
ClCc1ccc(Cl)c(Cl)c1 | 37.5
COc1ccc2oc(CCC(C)=O)c(-c3ccc(C)o3)c2c1 | 36
O=C(Cl)c1ccc(Cl)c([N+](=O)[O-])c1 | 53.5
CC1(C)OC(=O)C(=NNc2ccc(O)cc2)C(=O)O1 | 238

P = Nc1c(Cl)cc(Cl)cc1I
Q = C=C1C2CCC3C(CCC4C5(C)CCCC43C3OCCN3C5)(C2)C1O (stereo not drawn)
R = COc1ccccc1N/N=C(/C#N)c1nc2ccccc2c(=O)[nH]1
List by increasing melting point. Provide the ranking by listing each label in its place in the requested order.
P, Q, R
(P: 80 °C, Q: 120 °C, R: 255 °C)

* * *

Readout Kind: melting point (°C)

Smiles Code | Unit Abbreviation | melting point
Oc1c(Cl)c(Cl)c(Cl)c(Cl)c1Cl | °C | 191
O=C(O)c1ccc(-c2ccncc2)cc1 | °C | 300
Cc1cc(=O)oc2cc(O)ccc12 | °C | 194
NCCCCCC(=O)O | °C | 211

I = O=C(c1ccco1)c1nn2c(nc(=O)c3ccccc32)s1
II = COc1cc(C)c(CCl)cc1CCl
III = N#CCC(N)=C(C#N)C#N
List by increasing melting point. Provide the ranking by listing each label in its place in the requested order.
II, III, I
(II: 78 °C, III: 172 °C, I: 325 °C)

1 = Cc1ccc(O)cn1
2 = C1CN(CCN2CCOCC2)CCO1
Field: entry with larger melting point (options 1 / 2 ). Your choice should be expressed through its label.
1

* * *

Readout Kind: melting point (°C)

Some solved entries appear below for comparison.
Molecule | Readout Kind | Result Value
Nc1nc(N)nc(NC2CC2)n1 | melting point | 225
c1ccc(-c2ccncc2)cc1 | melting point | 77.5
COCC(=NOCC(=O)OC)c1cc(Oc2ccc(C(F)(F)F)cc2Cl)ccc1[N+](=O)[O-] | melting point | 58

a = N#Cc1cc(F)c(F)c(F)c1
b = CC(=O)OC1(C(C)=O)CCC2C3CCC4=CC(=O)CCC4(C)C3(F)C(O)CC21C (stereo unspecified)
Which of these two has the smaller recorded melting point: a or b ? Your choice should be expressed through its label.
a

* * *

Readout Kind: melting point (°C)

Some solved entries appear below for comparison.
Compound | melting point (°C)
Nc1c(Br)cc(C(F)(F)F)cc1Br | 38
CCOC(=O)Nc1ccc2cc3ccc(NC)c(CO)c3nc2c1 | 145
O=C1c2ccccc2C(=O)C1c1ccc(F)cc1 | 120

a = NC(=O)c1nccnc1C(N)=O
b = CCOC(=O)C1=NN(c2ccc(Cl)cc2Cl)C(=O)C1C(Cl)C1(Cl)C(=O)N(c2ccc(Cl)cc2Cl)N=C1C(=O)OCC (stereo unspecified)
c = CCCC(=O)OC
Parameters: sort_field (melting point), sort_dir (desc). Provide the ranking by listing each label in its place in the requested order.
a, b, c

P = CCCCC(=O)OC1(C(=O)CO)CCC2C3CCC4=CC(=O)C=CC4(C)C3C(O)CC21C (stereo unspecified)
Q = O=S(=O)(Cl)c1cccc(Br)c1
R = CCCCCCCCCCCCCC#N
List by increasing melting point. Provide the ranking by listing each label in its place in the requested order.
R, Q, P

A = Oc1ccccc1C1Nn2c(COc3ccccc3)nnc2S1 (stereo unspecified)
B = CC(=O)CC(=O)c1ccc2ccccc2c1
Which of these two has the smaller recorded melting point: A or B ? Your choice should be expressed through its label.
B

* * *

Readout Kind: melting point (°C)

Molecule | Result Value
O=C1OC(c2ccccc2)=N/C1=C/c1ccc(-c2ccc(Br)cc2)o1 | 180

1 = Cc1ccc2cccc(Cl)c2n1
2 = Cc1ccc(C(F)(F)F)cc1N
3 = O=C(C1=NOC2C(=O)N(c3ccc(Cl)cc3)C(=O)C12)c1ccccc1 (stereo unspecified)
Parameters: sort_field (melting point), sort_dir (desc). Provide the ranking by listing each label in its place in the requested order.
3, 1, 2

* * *

Readout Kind: melting point (°C)

Some solved entries appear below for comparison.
Compound | Unit Abbreviation | melting point
NC(=O)c1ccc(Cl)c([N+](=O)[O-])c1 | °C | 152
CN(C)c1ccc(C=Cc2ccccc2)cc1 | °C | 150
COC(=O)C1CC(c2ccccc2)c2ccccc21 (configuration not stated) | °C | 91
COc1cc(O)c2c(=O)c(-c3ccc(O)cc3)coc2c1 | °C | 240
O=C(O)c1cc([N+](=O)[O-])cc([N+](=O)[O-])c1Cl | °C | 199
CC(C)(C)OC(=O)n1cc(CBr)c2ccccc21 | °C | 106
CC(C)NC(C)C | °C | -61

P = N#Cc1c(F)cccc1Sc1ccc(Cl)cc1
Q = O=[N+]([O-])c1ccc(-c2ccc(NNc3ccccc3)cc2)cc1
Which of these two has the smaller recorded melting point: P or Q ? Your choice should be expressed through its label.
P
(P: 70 °C, Q: 165 °C)

* * *

Readout Kind: melting point (°C)

Some solved entries appear below for comparison.
Compound | melting point [°C]
O=C(NC(Cc1ccsc1)C(=O)O)OCC1c2ccccc2-c2ccccc21 (configuration not stated) | 188
COc1ccc(N)c(C)c1 | 29.5

1 = O=S(=O)(N(c1ccc(Cl)cn1)S(=O)(=O)C(F)(F)F)C(F)(F)F
2 = CC12CCC(CCC1=O)C2(C)C (configuration not stated)
3 = O=C(O)c1cc([N+](=O)[O-])cc(C(F)(F)F)c1
Parameters: sort_field (melting point), sort_dir (desc). Provide the ranking by listing each label in its place in the requested order.
2, 3, 1
(2: 193 °C, 3: 130 °C, 1: 46 °C)

* * *

Readout Kind: melting point (°C)

Some solved entries appear below for comparison.
Smiles Code | melting point, °C
O=C1C(=Cc2ccc(N(CCCl)CCCl)cc2)SC(=S)N1CN(CCCl)CCCl | 106
CCOC(=O)C1CCN(c2nc(Cl)nc(Cl)n2)CC1 | 150
CN(C)CCN1C(=O)c2ccccc2N(C)c2ccccc21 | 116
Nc1cc(N)c(C(=O)CI)cc1C(=O)CI | 165
NC(=O)/C(=C\c1ccc(F)cc1)c1nc2ccccc2s1 | 178

1 = COC(=O)c1cc(Br)cc(Br)c1N
2 = COc1ccc(NN=C2C(=O)OC(C)(C)OC2=O)cc1
3 = COc1ccc(-c2csc(/C(C#N)=N\Nc3ccc(Br)cc3)n2)cc1
4 = OCCC1CCCCC1
List by increasing melting point. Provide the ranking by listing each label in its place in the requested order.
4, 1, 2, 3
(4: -20 °C, 1: 88 °C, 2: 128 °C, 3: 196 °C)

* * *

Readout Kind: melting point (°C)

Compound | Unit Abbreviation | melting point
O=C1OC(=O)C2CCCCC12 (stereo not drawn) | °C | 32
c1ccc(Cc2cc3ccccc3cn2)cc1 | °C | 64

P = COc1cc(Cl)c(Cl)cc1OC
Q = CCCC(c1ccccc1)c1ccccc1
Field: entry with larger melting point (options P / Q ). Your choice should be expressed through its label.
P

A = Cc1cc(C)c(O)cc1C
B = O=[N+]([O-])c1ccc2c(c1)-c1ccc([N+](=O)[O-])c3cccc-2c13
Which of these two has the smaller recorded melting point: A or B ? Your choice should be expressed through its label.
A
(A: 72 °C, B: 223 °C)
